System: Bacteroides ovatus
Assay: Antimicrobial activity against Bacteroides ovatus assessed as percent resistant isolates
Format: functional
Note to self: use TRUE only for Activity readings below 3%; a reading exactly at 3% still gets FALSE.

CCC[C@@H]1C[C@@H](C(=O)NC([C@H](C)Cl)[C@H]2O[C@H](SC)[C@H](O)[C@@H](O)[C@H]2O)N(C)C1 (single isomer, unassigned) [CLINDAMYCIN] ... FALSE
C[C@@H](O)[C@H]1C(=O)N2C(C(=O)O)=C(SCCNC=N)C[C@H]12 [IMIPENEM ANHYDROUS] ... TRUE
COC1(NC(=O)Cc2cccs2)C(=O)N2C(C(=O)O)=C(COC(N)=O)CS[C@@H]21 (single isomer, unassigned) [CEFOXITIN] ... FALSE
CN(C)c1cc(NC(=O)CNC(C)(C)C)c(O)c2c1C[C@H]1C[C@H]3[C@H](N(C)C)C(O)=C(C(N)=O)C(=O)[C@@]3(O)C(O)=C1C2=O [TIGECYCLINE] ... FALSE

Request: Strictly below 3%: is that where Activity of COc1c(N2C[C@@H]3CCCN[C@@H]3C2)c(F)cc2c(=O)c(C(=O)O)cn(C3CC3)c12 [MOXIFLOXACIN] sits?
Response: FALSE

Request: Strictly below 3%: is that where Activity of C[C@@H](O)[C@H]1C(=O)N2C(C(=O)O)=C(SC3CNC(C(=O)Nc4cccc(C(=O)O)c4)C3)[C@H](C)[C@H]12 (single isomer, unassigned) [ERTAPENEM] sits?
Response: TRUE

* * *

Test system: Bacteroides caccae
Assay: Antimicrobial activity against Bacteroides caccae assessed as percent resistant isolates
Format: functional
Measured Metric: Activity
// unit must come after the numeric part

CCC[C@@H]1C[C@@H](C(=O)NC([C@H](C)Cl)[C@H]2O[C@H](SC)[C@H](O)[C@@H](O)[C@H]2O)N(C)C1 (single isomer, unassigned) ... 28.2%
COc1c(N2C[C@@H]3CCCN[C@@H]3C2)c(F)cc2c(=O)c(C(=O)O)cn(C3CC3)c12 ... 36.4%

For reference, reported Activity for C[C@@H](O)[C@H]1C(=O)N2C(C(=O)O)=C(SC3CNC(C(=O)Nc4cccc(C(=O)O)c4)C3)[C@H](C)[C@H]12 (single isomer, unassigned) stands at 0.5%

For reference, reported Activity for CN(C)c1cc(NC(=O)CNC(C)(C)C)c(O)c2c1C[C@H]1C[C@H]3[C@H](N(C)C)C(O)=C(C(N)=O)C(=O)[C@@]3(O)C(O)=C1C2=O stands at 7.2%

* * *

Test system: Phocaeicola vulgatus
Assay: Antimicrobial activity against Bacteroides vulgatus assessed as percent resistant isolates
Format: functional
Measured Metric: Activity
// unit must come after the numeric part

A selection of reference data follows.
COc1c(N2C[C@@H]3CCCN[C@@H]3C2)c(F)cc2c(=O)c(C(=O)O)cn(C3CC3)c12 [MOXIFLOXACIN] ... 54.7%
C[C@@H](O)[C@H]1C(=O)N2C(C(=O)O)=C(SC3CNC(C(=O)Nc4cccc(C(=O)O)c4)C3)[C@H](C)[C@H]12 (single isomer, unassigned) [ERTAPENEM] ... 0.3%
C[C@@H](O)[C@H]1C(=O)N2C(C(=O)O)=C(S[C@@H]3CN[C@H](C(=O)N(C)C)C3)[C@H](C)[C@H]12 [MEROPENEM] ... 0%
C[C@@H](O)[C@H]1C(=O)N2C(C(=O)O)=C(SCCNC=N)C[C@H]12 [IMIPENEM ANHYDROUS] ... 0.3%

Value (Activity, Phocaeicola vulgatus) for record CN(C)c1cc(NC(=O)CNC(C)(C)C)c(O)c2c1C[C@H]1C[C@H]3[C@H](N(C)C)C(O)=C(C(N)=O)C(=O)[C@@]3(O)C(O)=C1C2=O [TIGECYCLINE] = 1.6%

Value (Activity, Phocaeicola vulgatus) for record CCC[C@@H]1C[C@@H](C(=O)NC([C@H](C)Cl)[C@H]2O[C@H](SC)[C@H](O)[C@@H](O)[C@H]2O)N(C)C1 (single isomer, unassigned) [CLINDAMYCIN] = 35.3%

Value (Activity, Phocaeicola vulgatus) for record COC1(NC(=O)Cc2cccs2)C(=O)N2C(C(=O)O)=C(COC(N)=O)CS[C@@H]21 (single isomer, unassigned) [CEFOXITIN] = 0.3%

All values here come from ChEMBL document CHEMBL1143824.
